Reference source for all entries: ChEMBL document CHEMBL3988442

Target Or System: Sialic acid-binding Ig-like lectin 9 (Homo sapiens)
Experiment: Hs-Siglec9 ALPHAscreen SOP 20170721
Set-up: scale not given: direction of the effect not stated beside the values
Recorded Conditions: 10 µM
Observable: Percent Effect

• Cc1nnn2c1COCC(CNC(=O)c1ccc3[nH]ccc3c1)C2 (configuration not stated) = 8.82%
• O=C(NCCOCC(F)(F)F)c1ccc(-c2ccco2)[nH]c1=O = 3.06%
• CCC(=O)Nc1nnc(CCOc2cccc(OC)c2)s1 = 1.2%
• CCN1CCN(C2CCN(Cc3noc(C)n3)CC2)C1=O = -5.18%
• O=S(=O)(N1CCCCC1)N1CCc2nc(C3CCNCC3)ncc2C1 = 4.08%
• CC1(C)CC(N2Cc3nc(N4CCOCC4)ncc3C2=O)CC(C)(C)N1 = 1.23%
• FC(F)(F)C1CCCn2c(CNCc3ccsc3)nnc21 (configuration not stated) = 4.99%
• COCCn1cc2c(n1)C(CNCc1ccc(F)cc1)OCC2 (configuration not stated) = -5.65%
• COc1ccccc1CN(C)C(=O)c1cc(CN2CCC(O)CC2)on1 = 19.3%
• Cc1ccc(S(=O)(=O)NCCNC(=O)c2ccoc2)cc1F = 12.1%
• COCC1COCCC12CCN(C(=O)CCc1ccccc1)CC2 (configuration not stated) = -3.38%
• NC(=O)COc1cccc(C(=O)N2CCCC(n3ccnc3)C2)c1 (configuration not stated) = 11.8%
• N#Cc1ccc(C(=O)NCCCNc2ccc(C(F)(F)F)cn2)cc1 = -0.309%
• Cc1nc(N2CCN(C(=O)c3ccc(O)cc3)CC2)c2cnn(C)c2n1 = 5.23%
• COCC(=O)NCc1cc(=O)n2c(n1)CN(CC1CCOC1)CCC2 (configuration not stated) = -10.2%
• COCCN1CCc2cc(C(=O)N(C)C)c(NC(C)C)nc2CC1 = -5.3%
• COc1ccc2c(c1)CCN(CCC(=O)O)CC2 = 15.3%
• Cc1cncc(C(=O)N2CCCCC2c2nc(C)cs2)c1 (configuration not stated) = 4.39%
• CC(C)CNC(=O)[C@H]1CCS(=O)(=O)[C@@H]2CN(Cc3cccc(Cl)c3)C[C@H]12 = 3.48%
• N#Cc1cccc(CN2CC[C@@H]3[C@@H]2CC(=O)N3Cc2cccnc2)c1 = 1.95%
• CCN1CCN(Cc2coc(-c3cccc(F)c3)n2)CC1 = -3.56%
• COc1cc(C)nc(N2CCN(C(=O)c3ccc[nH]3)CC2)n1 = 14.9%
• CC(C)c1nc(C(=O)N2CCOCC2CC(=O)c2ccco2)c[nH]1 (configuration not stated) = 2.67%
• CCc1nc(NS(=O)(=O)c2ccc(F)cc2C)no1 = 21.3%
• Cn1cc(C(=O)Nc2ccc3c(c2)CN(C(=O)c2ccco2)CC3)nn1 = 9.07%
• O=C(CCCc1ccc(F)cc1)N1C[C@@H](CN2CCOCC2)[C@@H](CO)C1 = -3.8%
• CCOCCCC(=O)NCCC(=O)N1CCN(c2ccccn2)CC1 = 5.65%
• CN(C)C(CNS(=O)(=O)c1ccc(F)cc1F)c1cccn1C (configuration not stated) = -1%
• Cc1ccc(C(=O)NCCCNS(C)(=O)=O)c(=O)[nH]1 = 4.72%
• Cc1cnn(CCNCc2ccc(OCC(N)=O)cc2)c1 = 3.41%
• Cn1cc(CCNC(=O)NCc2nnc3n2CCC3)cn1 = 10.9%
• CN(CC(=O)NC1(C#N)CCCC1)C1CCCN(c2cccnn2)C1 (configuration not stated) = 7.82%
• Cn1c(Cn2cccn2)nnc1C1CCN(Cc2cccnc2N)CC1 = -4.65%
• COCCO[C@H]1CCN(Cc2cccs2)[C@H]1Cc1cccnc1 = 20.5%
• CCCNC(=O)c1cnc(N(C)C)nc1COC = 8.88%
• O=C(Nc1nncs1)NC1CCc2ccccc21 (configuration not stated) = 3.21%
• COc1ccccc1CC1CCCN(CC(N)=O)C1 (configuration not stated) = 9.64%
• CC(=O)Nc1ccc(S(=O)(=O)NC(=O)CCC2CCCO2)cc1 (configuration not stated) = 34.9%
• CN(C)C(=O)c1ccc2c(c1)N(C)C(CC(=O)NC(C)(C)CO)CO2 (configuration not stated) = 3.27%
• Cc1ccccc1NS(=O)(=O)c1cc2c(c(C(=O)O)c1)OCCO2 = -1.17%
• CN(C)C(=O)N1CCN(Cc2ccccc2)[C@@H]2CS(=O)(=O)C[C@@H]21 = 3.84%
• Cc1nc(C)n(CC2CCCN2CC(=O)Nc2cc(C(C)C)no2)n1 (configuration not stated) = 10.4%
• CN(C)CCN(Cc1cccc(C(F)(F)F)c1)C(=O)c1cc[nH]n1 = -0.91%
• CCN(Cc1cccc(Cl)c1)Cc1nc2c(cnn2C)c(=O)[nH]1 = -4.85%
• COc1cc(C)c(CN2CCC3(CC2)C(C(=O)O)CC(=O)N3C)cc1C (configuration not stated) = 6.22%
• c1ccc2sc(CN3CCCC3c3noc(C4CC4)n3)nc2c1 (configuration not stated) = -2.6%
• CNC(=O)c1cccc(CNC(=O)C2CC(=O)N(CCN(C)C)C2)c1 (configuration not stated) = 0.817%
